assay: superoxide lowering in aged yeast cells, pilot screen, validation compound set (AID 2706);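 further: yeast exposed to compound for one week at 30 degrees C before staining; 100% = mean of all compound wells on the same plate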; conditions: S. cerevisiae aging, superoxide DHE fluorescence; at 10 µM, hits give low values
Calls of active or inactive are those of the source.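 How the source made its calls: active means superoxide response below 65% of plate, a cut near 3 SD across the whole screen; inactive means the rest.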
property-label: superoxide response (% of plate)

For orientation, consider the following solved cases.
> print(dat)
                                   compound                    property.label            result
1  COc1ccc(C2N3CC4(C)CN2CC(C)(C3)C4)cc1OC (configuration not stated)  superoxide response (% of plate)  96.9% (inactive)
2                           O=C(O)c1ccccc1O  superoxide response (% of plate)   100% (inactive)

Recorded result, `NC12CC3CC(CC(C3)C1)C2` , superoxide response (% of plate): 96.9% (inactive)

Recorded result, CC(=O)N1CC23C=CC(CC2CC12CCCCCC2)O3 (configuration not stated) , superoxide response (% of plate): 102% (inactive)

Recorded result, CC(C)CN1CC(C(=O)O)CC1=O (configuration not stated) , superoxide response (% of plate): 102% (inactive)

Recorded result, `COc1ccc(CNC(=O)c2cc3c(=O)n4ccccc4nc3n(Cc3cccnc3)c2=N)cc1` , superoxide response (% of plate): 92.2% (inactive)

Recorded result, `COc1ccc(CC(=O)c2c(O)cc(O)cc2O)cc1OC` , superoxide response (% of plate): 102% (inactive)

Recorded result, COc1ccc(CCn2c(C)cc3c(c2=O)C(c2ccncc2)C(C#N)=C(N)O3)cc1OC (configuration not stated) , superoxide response (% of plate): 102% (inactive)

Recorded result, `O=c1nc2cccc3c2=c(/c1=C(\O)c1ccccc1)c1ccccc1c3=O` , superoxide response (% of plate): 99.9% (inactive)

Recorded result, `COc1ccc(Cl)cc1C(=O)NCCc1ccc(S(=O)(=O)NC(=O)NC2CCCCC2)cc1` , superoxide response (% of plate): 114% (inactive)
